All values here come from patent US20250011363A1.

Overview of reported Binding affinity across a group of binders:
target: acetylcholine receptor; test: SPR, peptide at 10 uM
observationType: Binding affinity (RU)

binder: RHSFRK [6mer-2-1130]
observationType: Binding affinity
unitText: RU
observedValue: 29

binder: KPNFRK [6mer-2-1113]
observationType: Binding affinity
unitText: RU
observedValue: 43

binder: RNTNRK [6mer-2-1155]
observationType: Binding affinity
unitText: RU
observedValue: 25

binder: RNNAKK [6mer-2-1105]
observationType: Binding affinity
unitText: RU
observedValue: 28

binder: RTAPKK [6mer-2-1100]
observationType: Binding affinity
unitText: RU
observedValue: 24

binder: RTADRK [6mer-2-1187]
observationType: Binding affinity
unitText: RU
observedValue: 36

binder: RCNFKK [6mer-2-1122]
observationType: Binding affinity
unitText: RU
observedValue: 22
